Data provenance is patent US12486280B2.

Listed compounds paired with reported pIC50
Tested on: drug-sensitive cell lines of Table 2 (EFM-19, MDA-MB-453, T-47D, ZR-75-1, NCI-H441, OVTOKO, NCI-H1838)
Assay: Cell Line Growth Retardation Assay, sensitive cohort
Assay type: cell-based, human
Conditions: Homo sapiens, […], geometric mean over sensitive cohort; 6 days growth; read-out: AvgSensIC50
Quick note: pIC50 values are minus log10 of concentrations in mol/L.

See these solved cases before continuing.
Cc1nc2c(F)cc(-c3nc(Nc4ccc(CN5CCOC(C)(CO)C5)cn4)ncc3F)cc2n1C(C)C (stereo not shown) [Compound A51] ... 6.21
CCN(CC)C(=O)C[C@]1(C)CN(Cc2ccc(Nc3ncc(F)c(-c4cc(F)c5nc(C)n(C(C)C)c5c4)n3)nc2)CCO1 [Compound A57] ... 6.41
C=CC[C@@]1(C)CN(Cc2ccc(Nc3ncc(F)c(-c4cc(F)c5nc(C)n(C(C)C)c5c4)n3)nc2)CCO1 [Compound A45] ... 6.11
Cc1nc2c(F)cc(-c3nc(Nc4ccc(CN5CCO[C@](C)(CC(=O)N6CCCC6)C5)cn4)ncc3F)cc2n1C(C)C [Compound A60] ... 6.57
Cc1nc2c(F)cc(-c3nc(Nc4ccc(CN5CCO[C@](C)(CCN6CC(F)C6)C5)cn4)ncc3F)cc2n1C(C)C [Compound A13] ... 7.15

Exercise: Param item = Cc1nc2c(F)cc(-c3nc(Nc4ccc(CN5CCO[C@@]6(CCN(C)C6)C5)cn4)ncc3F)cc2n1C(C)C [Compound A39] ; retrieve measured pIC50.
Key: 6.52

Exercise: GET /values?readout=pIC50&item= Cc1nc2c(F)cc(-c3nc(Nc4ccc(CN5CCO[C@](C)(CCN6CCCC6)C5)cn4)ncc3F)cc2n1C(C)C [Compound A16]
Key: 7.22

====

Test: Compound Solubility Assay (kinetic solubility)
Type: physicochemical
Details: simulated gastric fluid, kinetic from dmso stock; kinetic solubility, SGF buffer pH 1.2, 37° C., 24 hours; read-out: KS1
QUANTITY_NAME: solubility kinetic at 24 h (µM)
Quick reminder: number only, in µM, skip the unit.

Here's what some known entries look like.
Cc1nc2c(F)cc(-c3nc(Nc4ccc(CN5CCO[C@]6(CCN(S(C)(=O)=O)C6)C5)cn4)ncc3F)cc2n1C(C)C [Compound A32] ... 200
CC(=O)c1c(C)c2cnc(Nc3ccc(N4CCNCC4)cn3)nc2n(C2CCCC2)c1=O [Palbociclib, reference compound] ... 196

Exercise: solubility kinetic at 24 h lookup needed for CNC(=O)C[C@]1(C)CN(Cc2ccc(Nc3ncc(F)c(-c4cc(F)c5nc(C)n(C(C)C)c5c4)n3)nc2)CCO1 [Compound A59] , thanks.
Key: 199

Exercise: I am curious: what solubility kinetic at 24 h value has been reported for Cc1nc2c(F)cc(-c3nc(Nc4ccc(CN5CCN(C)C(C)(C)C5)cn4)ncc3F)cc2n1C(C)C [Compound A43] ?
Key: 200

Exercise: Reported solubility kinetic at 24 h, molecule COC(=O)N1CC[C@]2(CN(Cc3ccc(Nc4ncc(F)c(-c5cc(F)c6nc(C)n(C(C)C)c6c5)n4)nc3)CCO2)C1 [Compound A30] : ____
Key: 200

Exercise: What solubility kinetic at 24 h value was documented for this molecule, Cc1nc2c(F)cc(-c3nc(Nc4ccc(CN5CCO[C@@](C)(CCO)C5)cn4)ncc3F)cc2n1C(C)C [Compound A50] ?
Key: 200

Exercise: For the molecule Cc1nc2c(F)cc(-c3nc(Nc4ccc(CN5CCO[C@]6(CCN(C)C6)C5)cn4)ncc3F)cc2n1C(C)C [Compound A38] , what solubility kinetic at 24 h is on record?
Key: 200

Exercise: Look at this molecule and give its reported solubility kinetic at 24 h. CC(=O)N(C)CC[C@]1(C)CN(Cc2ccc(Nc3ncc(F)c(-c4cc(F)c5nc(C)n(C(C)C)c5c4)n3)nc2)CCO1 [Compound A8]
Key: 200

Exercise: Fill blank: measured solubility kinetic at 24 h of the molecule Cc1nc2c(F)cc(-c3nc(Nc4ccc(CN5CCO[C@](C)(C[C@H](C)N(C)C)C5)cn4)ncc3F)cc2n1C(C)C [Compound A27] is ____.
Key: 200

Exercise: # lookup: solubility kinetic at 24 h of CC(=O)N1CC[C@]2(CN(Cc3ccc(Nc4ncc(F)c(-c5cc(F)c6nc(C)n(C(C)C)c6c5)n4)nc3)CCO2)C1 [Compound A37]
Key: 197

Exercise: Look at this molecule and give its reported solubility kinetic at 24 h. Cc1nc2c(F)cc(-c3nc(Nc4ccc(CN5CC6(C5)CS(=O)(=O)C6)cn4)ncc3F)cc2n1C(C)C [Compound A62]
Key: 190

Exercise: Item under review: CNCC[C@@]1(C)CN(Cc2ccc(Nc3ncc(F)c(-c4cc(F)c5nc(C)n(C(C)C)c5c4)n3)nc2)CCO1 [Compound A22] . Reported solubility kinetic at 24 h?
Key: 200

Exercise: Recorded solubility kinetic at 24 h for Cc1nc2c(F)cc(-c3nc(Nc4ccc(CN5CCO[C@](C)(CCN(C)C)C5)cn4)ncc3F)cc2n1C(C)C [Compound A2] , please?
Key: 200

Exercise: Name the recorded solubility kinetic at 24 h for CCN(CC)CCC1(C)CN(Cc2ccc(Nc3ncc(F)c(-c4cc(F)c5nc(C)n(C(C)C)c5c4)n3)nc2)CCO1 (stereo in doubt) [Compound A3] .
Key: 200

====

Reported Ki by item:
Target: CDK4 (Homo sapiens (Human), UniProt P11802)
Sequence (P11802 whole entry): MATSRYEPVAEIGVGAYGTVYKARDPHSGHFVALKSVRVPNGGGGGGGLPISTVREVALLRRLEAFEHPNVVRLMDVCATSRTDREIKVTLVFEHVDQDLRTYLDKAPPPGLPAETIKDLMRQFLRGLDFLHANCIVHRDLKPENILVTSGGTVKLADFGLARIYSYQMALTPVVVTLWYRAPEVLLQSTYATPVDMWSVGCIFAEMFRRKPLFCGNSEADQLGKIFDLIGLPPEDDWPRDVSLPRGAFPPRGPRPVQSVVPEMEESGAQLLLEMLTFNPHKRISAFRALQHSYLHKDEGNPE
Sequence (P24385 whole entry partner): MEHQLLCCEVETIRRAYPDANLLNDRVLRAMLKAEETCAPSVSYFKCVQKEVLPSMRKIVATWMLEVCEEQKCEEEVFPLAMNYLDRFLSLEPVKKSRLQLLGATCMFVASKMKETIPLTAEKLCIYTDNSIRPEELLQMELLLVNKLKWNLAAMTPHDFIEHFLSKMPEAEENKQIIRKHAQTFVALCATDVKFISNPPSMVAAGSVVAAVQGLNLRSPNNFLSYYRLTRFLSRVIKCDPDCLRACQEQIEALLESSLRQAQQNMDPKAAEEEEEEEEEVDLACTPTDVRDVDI
Assay: Cdk4 and 6 Enzymatic Inhibition Assay (radiometric 33PanQinase, Ki determination)
Assay type: biochemical
Reply with just the number (in nM).

Look over these answered cases.
Cc1nc2c(F)cc(-c3nc(Nc4ccc(CN5CCOC(C)(CC(C)N(C)C)C5)cn4)ncc3F)cc2n1C(C)C (centres unmarked) ... 0.8
Cc1nc2c(F)cc(-c3nc(Nc4ccc(CN5CCO[C@](C)(CC(=O)N(C)C)C5)cn4)ncc3F)cc2n1C(C)C ... 1.6
Cc1nc2c(F)cc(-c3nc(Nc4ccc(CN5CCO[C@]6(CCN(S(C)(=O)=O)C6)C5)cn4)ncc3F)cc2n1C(C)C ... 3.07
Cc1nc2c(F)cc(-c3nc(Nc4ccc(CN5CCO[C@](C)(CCN6CC6C)C5)cn4)ncc3F)cc2n1C(C)C (some centres unmarked) ... 1.35
CCOCC[C@]1(C)CN(Cc2ccc(Nc3ncc(F)c(-c4cc(F)c5nc(C)n(C(C)C)c5c4)n3)nc2)CCO1 ... 26.9

Exercise: I have this molecule here, Cc1nc2c(F)cc(-c3nc(Nc4ccc(CN5CCOC(C)(C)C5)cn4)ncc3F)cc2n1C(C)C , and I need its recorded Ki.
Key: 1.77

Exercise: Bench note: what Ki did Cc1nc2c(F)cc(-c3nc(Nc4ccc(CN5CCO[C@](C)(CCNCC(F)(F)F)C5)cn4)ncc3F)cc2n1C(C)C show?
Key: 2.54

Exercise: Fill in the blank: the reported Ki of CC(=O)N1CC[C@@]2(CN(Cc3ccc(Nc4ncc(F)c(-c5cc(F)c6nc(C)n(C(C)C)c6c5)n4)nc3)CCO2)C1 is ____.
Key: 1.91

Exercise: # get_value(readout='Ki', item= Cc1nc2c(F)cc(-c3nc(Nc4ccc(CN5CCO[C@](C)(CCN6CC(F)C6)C5)cn4)ncc3F)cc2n1C(C)C )
Key: 0.92

====

Experiment: Compound Solubility Assay (kinetic solubility)
Format: physicochemical
Conditions: 50 mM phosphate buffer, pH 7.4, aqueous buffer, kinetic from dmso stock; read-out: KS7
QUANTITY_NAME: solubility kinetic at 24 h

Cc1nc2c(F)cc(-c3nc(Nc4ccc(CN5CCN(C)C(C)(C)C5)cn4)ncc3F)cc2n1C(C)C ... 8.37 µM
Cc1nc2c(F)cc(-c3nc(Nc4ccc(CN5CCO[C@@](C)(CCO)C5)cn4)ncc3F)cc2n1C(C)C ... 1.13 µM
Cc1nc2c(F)cc(-c3nc(Nc4ccc(CN5CCO[C@](C)(CCN(C)C)C5)cn4)ncc3F)cc2n1C(C)C ... 31.4 µM
CC(=O)N(C)CC[C@]1(C)CN(Cc2ccc(Nc3ncc(F)c(-c4cc(F)c5nc(C)n(C(C)C)c5c4)n3)nc2)CCO1 ... 128 µM
Cc1nc2c(F)cc(-c3nc(Nc4ccc(CN5CCO[C@@](C)(CCN(C)C)C5)cn4)ncc3F)cc2n1C(C)C ... 42.5 µM
CC(=O)N1CC[C@]2(CN(Cc3ccc(Nc4ncc(F)c(-c5cc(F)c6nc(C)n(C(C)C)c6c5)n4)nc3)CCO2)C1 ... 109 µM
Cc1nc2c(F)cc(-c3nc(Nc4ccc(CN5CCO[C@@](C)(C[C@H](C)N(C)C)C5)cn4)ncc3F)cc2n1C(C)C ... 133 µM
CNCC[C@@]1(C)CN(Cc2ccc(Nc3ncc(F)c(-c4cc(F)c5nc(C)n(C(C)C)c5c4)n3)nc2)CCO1 ... 15.6 µM
CC(=O)c1c(C)c2cnc(Nc3ccc(N4CCNCC4)cn3)nc2n(C2CCCC2)c1=O [Palbociclib, reference compound] ... 29.6 µM
Cc1nc2c(F)cc(-c3nc(Nc4ccc(CN5CCNC(C)(C)C5)cn4)ncc3F)cc2n1C(C)C ... 6.3 µM

Exercise: Need solubility kinetic at 24 h, item CCN1CCN(Cc2ccc(Nc3ncc(F)c(-c4cc(F)c5nc(C)n(C(C)C)c5c4)n3)nc2)CC1 [Abemaciclib MS, Abemaciclib, reference compound]
Key: 151 µM

Exercise: Value lookup for solubility kinetic at 24 h; key = Cc1nc2c(F)cc(-c3nc(Nc4ccc(CN5CCO[C@](C)(C[C@H](C)N(C)C)C5)cn4)ncc3F)cc2n1C(C)C
Key: 107 µM

Exercise: Entry Cc1nc2c(F)cc(-c3nc(Nc4ccc(CN5CCO[C@](C)(CCN6CC(F)(F)C6)C5)cn4)ncc3F)cc2n1C(C)C has what solubility kinetic at 24 h?
Key: 1 µM
